Test system: T. cruzi (Tulahuen strain)
Assay: microbe, parasite or virus in culture
Type: cell-based, Trypanosoma cruzi
Settings: Trypanosoma cruzi, TULAHUEN, Fibroblast, 120 h, 10 uM, Table S2; read-out: T. cruzi % growth @ 10 uM (Amastigotes)
Method: Compounds were tested against T. cruzi (Tulahuen strain) stably expressing the beta-galactosidase gene as previously described. […] Fibroblasts were plated at a density of 2×10^3 per well in 96 well tissue culture plates. […] Z-prime values were calculated for each 96-well plate based on positive (4 wells) and negative controls (4 wells).
# Lookup of reported activity at 10 µM keyed by entry
Result Type: activity at 10 µM (%)

CC(C)c1ccc2c(c1O)CCC1C3=C(CCC21C)C(=O)OC3 (stereo not shown) [TRIPTOPHENOLIDE] | 13.8
CC(C)CCC[C@@H](C)[C@H]1CC[C@H]2[C@@H]3C(=O)C=C4C[C@@H](O)CC[C@]4(C)[C@H]3CC[C@]12C | 23.4
CN1CCC(=C2c3ccccc3Sc3ccccc32)CC1 | 3.9
C=C1C2CCC3(C)C(c4ccoc4)OC(=O)CC13OC1CC(OC(C)=O)C(C)(C)C(CC(=O)OC)C12C (stereo not shown) | 1
O=c1c(O)c(-c2ccccc2)oc2ccccc12 [3-HYDROXYFLAVONE, 3-hydroxy-2-phenyl-4H-chromen-4-one] | 4.1
CC(=O)OC1CCC2(C)C(CC(OC(C)=O)C3(C)C4=CC(=O)OC(c5ccoc5)C4(C)CCC23)C1(C)C (stereo not drawn) [3-DEOXO-3beta-ACETOXYDEOXYDIHYDROGEDUNIN] | 7.8
Cl.Fc1ccc(C2CCNCC2COc2ccc3c(c2)OCO3)cc1 (stereo not shown) | 6.8

----------
Tested on: T. cruzi (Tulahuen strain)
Test: microbe, parasite or virus in culture
Format: cell-based, Trypanosoma cruzi
Settings: Trypanosoma cruzi, TULAHUEN, Fibroblast, 120 h, 10 uM, Table S2; read-out: T. cruzi % growth @ 10 uM (Amastigotes)
Result Type: activity at 10 µM (%)

COc1ccc2c(c1)OCC(Cc1ccc(OC)c(OC)c1)C2=O (stereo not drawn) | 8.3
CSc1ccc2c(c1)N(CCC1CCCCN1C)c1ccccc1S2 (stereo not drawn) | 19.1
CC12C=CC(=O)C=C1CCC1C2CCC2(C)C(=O)CCC12 (stereo not drawn) | 25.1
COc1ccc(-c2cc(=O)c3ccccc3o2)cc1 | 18.7
O=c1cc(-c2ccc(O)cc2)oc2cc(O)cc(O)c12 | 17.7
COc1ccc(Cc2nccc3cc(OC)c(OC)cc23)cc1OC | 8.4
CSc1ccc2c(c1)C(N1CCN(C)CC1)Cc1ccccc1S2 (stereo not drawn) [METHIOTHEPIN] | 4.4
CC(CC(O)C1OC1(C)C)C1CCC2(C)C3=CCC4C(C)(C)C(=O)CCC4(C)C3CCC12C (stereo not drawn) | 2.2
COc1ccc2c(c1)OC/C(=C/c1ccc(OC)c(OC)c1)C2=O | 7.5

----------
Form field: activity at 10 µM (one value per entry).
Test system: T. cruzi (Tulahuen strain)
Assay: microbe, parasite or virus in culture
Assay type: cell-based, Trypanosoma cruzi
Conditions: Trypanosoma cruzi, TULAHUEN, Fibroblast, 120 h, 10 uM, Table S2; read-out: T. cruzi % growth @ 10 uM (Amastigotes)
Result Type: activity at 10 µM

CN1CCN(CCCN2c3ccccc3Sc3ccc(C(F)(F)F)cc32)CC1 | 20.4%
N=C(N)c1ccc(OCCCCCOc2ccc(C(=N)N)cc2)cc1 | 17.6%
CCC(=O)O[C@H]1CC[C@H]2[C@@H]3CCc4cc(O)ccc4[C@H]3CC[C@]12C [ESTRADIOL PROPIONATE] | 20.3%
CC1(C)C(=O)C2OC2C2(C)C1CC(O)C1(C)C2CCC2(C)C(c3ccoc3)OC(=O)C3OC321 (stereo not drawn) [1,2alpha-EPOXYDEACETOXYDIHYDROGEDUNIN] | 7.8%
O=c1c(-c2ccc(O)cc2)coc2cc(O)cc(O)c12 | 6.4%
CC1CCC2(NC1)OC1CC3C4CCC5CC(O)CCC5(C)C4CCC3(C)C1C2C (stereo not shown) | 8.5%
CC(C)COCC(CN(Cc1ccccc1)c1ccccc1)N1CCCC1 (stereo not shown) | 24.4%
